# study-target: human recombinant HDAC6 (Homo sapiens, UniProt Q9UBN7)
# Sequence (Q9UBN7 whole entry): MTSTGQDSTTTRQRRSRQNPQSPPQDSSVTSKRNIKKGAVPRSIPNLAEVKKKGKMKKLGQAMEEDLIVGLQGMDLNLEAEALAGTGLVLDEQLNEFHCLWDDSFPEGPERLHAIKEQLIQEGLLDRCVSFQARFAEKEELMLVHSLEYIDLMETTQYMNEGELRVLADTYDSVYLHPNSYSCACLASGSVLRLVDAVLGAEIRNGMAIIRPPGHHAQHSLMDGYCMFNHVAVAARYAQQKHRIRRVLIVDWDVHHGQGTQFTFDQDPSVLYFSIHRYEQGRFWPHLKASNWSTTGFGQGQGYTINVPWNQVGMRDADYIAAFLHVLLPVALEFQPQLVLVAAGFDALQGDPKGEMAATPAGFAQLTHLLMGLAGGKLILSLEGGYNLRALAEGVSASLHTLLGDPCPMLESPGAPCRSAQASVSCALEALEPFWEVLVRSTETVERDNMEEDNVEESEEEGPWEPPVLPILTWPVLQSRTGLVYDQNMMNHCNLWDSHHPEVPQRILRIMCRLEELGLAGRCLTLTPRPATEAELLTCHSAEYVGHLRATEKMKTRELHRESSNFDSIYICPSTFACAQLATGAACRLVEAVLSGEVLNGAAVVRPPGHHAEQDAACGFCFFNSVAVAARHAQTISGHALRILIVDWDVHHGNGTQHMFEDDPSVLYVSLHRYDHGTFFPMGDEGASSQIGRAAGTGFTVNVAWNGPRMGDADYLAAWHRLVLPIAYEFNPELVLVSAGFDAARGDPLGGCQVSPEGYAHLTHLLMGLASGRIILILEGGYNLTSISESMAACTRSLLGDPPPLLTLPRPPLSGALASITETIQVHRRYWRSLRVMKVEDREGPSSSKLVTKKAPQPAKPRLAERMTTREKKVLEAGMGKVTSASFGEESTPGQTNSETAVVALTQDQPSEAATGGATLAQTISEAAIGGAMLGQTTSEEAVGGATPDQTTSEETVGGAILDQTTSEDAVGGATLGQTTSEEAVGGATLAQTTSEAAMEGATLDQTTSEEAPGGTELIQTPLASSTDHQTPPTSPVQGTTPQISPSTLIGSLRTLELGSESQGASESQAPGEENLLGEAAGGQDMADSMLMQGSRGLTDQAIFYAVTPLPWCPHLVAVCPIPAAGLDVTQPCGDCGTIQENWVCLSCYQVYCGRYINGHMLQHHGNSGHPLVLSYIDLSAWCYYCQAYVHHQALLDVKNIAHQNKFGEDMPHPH
# test-name: HDAC6 enzyme activity inhibition assay (HDAC Fluorimetric Drug Discovery Kit)
# condition-info: same protocol as the HDAC1 enzyme activity test
Binned IC50; ranges: category 1: < 20 nM; category 2: ≥ 20 nM and < 100 nM; category 3: ≥ 100 nM

Completed entries (count: 5):
[
  {
    "record-smiles": "CS(=O)(=O)N(Cc1ccc(-c2nnc(C(F)(F)F)o2)c(F)c1)c1cccnc1",
    "assigned-label": "category 3"
  },
  {
    "record-smiles": "CCCCS(=O)(=O)N(Cc1ccc(-c2nnc(C(F)F)o2)cc1F)c1ccccc1",
    "assigned-label": "category 2"
  },
  {
    "record-smiles": "COc1ccccc1C1CCN(CCS(=O)(=O)N(Cc2ccc(-c3nnc(C(F)F)o3)cc2)c2ccccc2)CC1",
    "assigned-label": "category 3"
  },
  {
    "record-smiles": "CC(=O)N1CCN(CCCS(=O)(=O)N(Cc2ccc(-c3nnc(C(F)F)o3)cc2)c2ccccc2)CC1",
    "assigned-label": "category 2"
  },
  {
    "record-smiles": "CN(C)CCS(=O)(=O)N(Cc1ccc(-c2nnc(C(F)F)o2)cc1)c1ccccc1",
    "assigned-label": "category 3"
  }
]

Record "CCN1CCC(S(=O)(=O)N(Cc2ccc(-c3nnc(C(F)F)o3)cn2)c2ccccc2)CC1" — which class?
category 1

Record "O=S(=O)(CCN1CC[C@@H](O)C1)N(Cc1ccc(-c2nnc(C(F)F)o2)cc1)c1ccccc1" — which class?
category 2

Record "CCS(=O)(=O)N(Cc1ccc(-c2nnc(C(F)(F)F)o2)cc1F)c1cccc(CN2CCN(C(C)=O)CC2)c1" — which class?
category 3

###

# study-target: human recombinant HDAC6 (Homo sapiens, UniProt Q9UBN7)
# Construct: purchased Calbiochem 382180
# test-name: HDAC6 enzyme activity inhibition assay (HDAC Fluorimetric Drug Discovery Kit)
# Format: biochemical
# condition-info: HDAC1 vs HDAC6
satisfied means recorded HDAC6 selectivity (fold) is 1000 fold or above; not satisfied means it is below 1000 fold.

Completed entries (count: 10):
[
  {
    "record-smiles": "CS(=O)(=O)N(Cc1ccc(-c2nnc(C(F)F)o2)nn1)c1ccccc1",
    "assigned-label": "satisfied"
  },
  {
    "record-smiles": "Cc1cccc(N(Cc2ccc(-c3nnc(C(F)F)o3)cc2F)S(C)(=O)=O)c1",
    "assigned-label": "satisfied"
  },
  {
    "record-smiles": "COc1ccc(N(Cc2ccc(-c3nnc(C(F)F)o3)cc2F)S(C)(=O)=O)cc1",
    "assigned-label": "satisfied"
  },
  {
    "record-smiles": "CS(=O)(=O)N(Cc1ccc(-c2nnc(C(F)(F)F)o2)cc1)c1ccccc1",
    "assigned-label": "not satisfied"
  },
  {
    "record-smiles": "CN1CCc2nc(N(Cc3ccc(-c4nnc(C(F)F)o4)cc3)S(C)(=O)=O)sc2C1",
    "assigned-label": "not satisfied"
  },
  {
    "record-smiles": "CS(=O)(=O)N(Cc1ccc(-c2nnc(C(F)F)o2)nc1)c1ccccc1",
    "assigned-label": "not satisfied"
  },
  {
    "record-smiles": "COC(=O)CCS(=O)(=O)N(Cc1ccc(-c2nnc(C(F)F)o2)cc1F)c1ccccc1",
    "assigned-label": "satisfied"
  },
  {
    "record-smiles": "CC(=O)N1Cc2ccc(N(Cc3ccc(-c4nnc(C(F)F)o4)cn3)S(C)(=O)=O)cc2C1",
    "assigned-label": "not satisfied"
  },
  {
    "record-smiles": "CCS(=O)(=O)N(Cc1ccc(-c2nnc(C(F)F)o2)cn1)c1cc(C)cc(Cl)c1",
    "assigned-label": "satisfied"
  },
  {
    "record-smiles": "CCN(CC)CCS(=O)(=O)N(Cc1ccc(-c2nnc(C(F)F)o2)cc1)c1ccccc1",
    "assigned-label": "not satisfied"
  }
]

Kindly consider the entry below.
Determine whether this compound has HDAC6 selectivity (fold) no lower than 1000 fold: "O=S(=O)(CCN1CC=C(c2ccc(Cl)cc2)CC1)N(Cc1ccc(-c2nnc(C(F)F)o2)cc1)c1ccccc1"
not satisfied
